Read-out: Nuclear factor erythroid 2-related factor 2 (Homo sapiens) (UniProt Q16236)
Sequence (Q16236 whole entry, looked up): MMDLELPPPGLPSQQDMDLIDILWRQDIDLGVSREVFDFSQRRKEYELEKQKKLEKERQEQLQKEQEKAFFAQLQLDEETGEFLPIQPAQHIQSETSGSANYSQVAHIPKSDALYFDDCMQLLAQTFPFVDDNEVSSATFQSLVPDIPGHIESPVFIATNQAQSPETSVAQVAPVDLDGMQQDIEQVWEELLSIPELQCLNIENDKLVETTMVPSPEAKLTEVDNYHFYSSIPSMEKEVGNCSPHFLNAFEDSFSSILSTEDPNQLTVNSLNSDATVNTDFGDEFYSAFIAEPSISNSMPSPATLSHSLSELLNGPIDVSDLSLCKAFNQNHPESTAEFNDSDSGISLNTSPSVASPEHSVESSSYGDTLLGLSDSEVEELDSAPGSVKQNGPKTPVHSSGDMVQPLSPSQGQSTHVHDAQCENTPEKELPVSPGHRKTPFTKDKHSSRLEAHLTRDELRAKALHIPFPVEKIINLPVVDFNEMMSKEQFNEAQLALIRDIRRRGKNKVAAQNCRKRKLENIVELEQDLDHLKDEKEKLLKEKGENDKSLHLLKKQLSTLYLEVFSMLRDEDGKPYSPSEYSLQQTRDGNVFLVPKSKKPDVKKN
Assay: LTEA_HepaRG_NFE2L2: Life Technologies and Expression Analysis (LTEA) Assay for Nuclear factor erythroid 2-related factor 2 (NFE2L2) Transcription Factor using HepaRG (AID 2283527);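 for outcome: TaqMan qRT-PCR transcript level normalised to ACTB GAPDH and POLR2A housekeeping genes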
Conditions: mRNA level, 48 h; actives raise or lower the signal
Activity calls are given as the source filed them. Rule for the calls: active = hit-call score of the fitted dose curve at least 0.9, where 1 is the maximum; inactive = score below 0.9.
In this exercise, the only acceptable responses are TRUE for active, FALSE for inactive

q: Per the assay record, what outcome was assigned to O=C(OCCOCCOC(=O)c1ccccc1)c1ccccc1 ?
a: FALSE

q: Returns: the outcome recorded for CCOC(=O)CC(O)(CC(=O)OCC)C(=O)OCC in this assay.
a: FALSE

q: For this compound, state the assay outcome: CCc1ccc(CCOc2ccc(CC3SC(=O)NC3=O)cc2)nc1 (stereo not drawn)
a: TRUE

q: Dear colleague, could you share the recorded outcome for CCN(CC)CCNc1ccc(CNC=O)c2sc3ccc(OC)cc3c(=O)c12 when you have a moment?
a: TRUE

q: Outcome? NC(=O)N(O)[C@@H]1C=C[C@H](Oc2cccc(Oc3ccc(F)cc3)c2)C1
a: TRUE

q: GET /call?item= COCC(C)OCC(C)O (stereo not drawn) returns the recorded outcome of this test.
a: FALSE

====

Read-out: Intercellular Adhesion Molecule 1 (ICAM1), ICAM1 (gene 3383)
Assay: BSK_3C_ICAM1: BioMAP Diversity Plus: 3C Assay for Intercellular Adhesion Molecule 1 (ICAM1) Biomarker Activity (AID 2283003)
Details: primary human endothelial cells (HUVEC); actives raise or lower the signal
Calls of active or inactive are those of the source. Rule for the calls: active = hit-call score of the fitted dose curve at least 0.9, where 1 is the maximum; inactive = score below 0.9.
Your response should consist of one outcome taken from YES (active), NO (inactive)

Example entries and their recorded answers appear below.
CC1=C(/C=C/C(C)=C/C=C/C(C)=C/C(=O)O)C(C)(C)CCC1 :: NO
NC(=O)N(O)[C@@H]1C=C[C@H](Oc2cccc(Oc3ccc(F)cc3)c2)C1 :: NO
Oc1cc2ccccc2c2ccccc12 :: YES
N#C[C@@H]1CC(F)(F)CN1C(=O)CNC1CC2CCC(C1)N2c1ncccn1 (stereo partly specified) :: NO
CC(C)(C)c1cccc(C(C)(C)C)c1O :: NO
c1ccc2cc3c(ccc4ccccc43)cc2c1 :: NO

q: State the result this test recorded for O=C(O)Cc1cc(I)c(Oc2cc(I)c(O)c(I)c2)c(I)c1 .
a: NO

q: What did the test return for COc1ccc([N+](=O)[O-])cc1N ?
a: NO

q: In this assay, the call recorded for O=C(OCCOCCOC(=O)c1ccccc1)c1ccccc1 was what?
a: NO

q: Please let me know the test result on file for CCCCCCCCOC(=O)CCCCCCCCC(=O)OCCCCCCCC .
a: NO

q: Query: recorded result category for Cc1oc(-c2ccccc2)nc1CCOc1ccc(C[C@H](Nc2ccccc2C(=O)c2ccccc2)C(=O)O)cc1 in this test
a: YES

====

Read-out: catalase (CAT), CAT (gene 847)
Assay: LTEA_HepaRG_CAT: Life Technologies and Expression Analysis (LTEA) Assay for catalase (CAT) using HepaRG (AID 2283452)
Details: mRNA level, 48 h; actives raise or lower the signal
Calls of active or inactive are those of the source. The calls were made as follows: active = hit-call score of the fitted dose curve at least 0.9, where 1 is the maximum; inactive = score below 0.9.
Your response should consist of one outcome taken from active, inactive

CCCOC(=O)c1ccc(O)cc1 :: inactive

q: What call does the record list for OC1CCCCC1 ?
a: inactive

q: Which outcome did this test record for the compound C=C(C)C(=O)OCCC(F)(F)C(F)(F)C(F)(F)C(F)(F)C(F)(F)C(F)(F)F ?
a: inactive

====

Assay: BSK_CASM3C_SRB: Viability Assessment in the BioMAP Diversity Plus: CASM3C Assay (AID 2283050);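 note: total protein by SRB staining as cytotoxicity measure in parallel cultures; cells exposed to compound for 24 h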
Settings: primary human coronary artery smooth muscle cells
The source made the active and inactive calls. The calls were made as follows: active = hit-call score of the fitted dose curve at least 0.9, where 1 is the maximum; inactive = score below 0.9.
quantity kind: AC50

Recorded results for 5 compounds are shown here.
CC(C)(C)c1cc(C(C)(C)C)c(O)c(C(C)(C)C)c1 :: inactive
COCC(C)OCC(C)O (configuration not stated) :: inactive
Cc1cc(CCN2CCN(c3nsc4ccccc34)CC2)cc2c1NC(=O)CC2(C)C :: 36.5 µM (active)
CCC(=C(c1ccc(O)cc1)c1ccc(OCCN(C)C)cc1)c1ccccc1 :: 22.2 µM (active)
NC(=O)N(O)[C@@H]1C=C[C@H](Oc2cccc(Oc3ccc(F)cc3)c2)C1 :: inactive

Dear colleague, could you send me AC50 for each of the items below? Thanks.
1. O=C(O)c1ccccc1C(c1ccc(O)cc1)c1ccc(O)cc1
2. CCCCCCC(=O)O
3. Nc1cccc2c(N)cccc12
4. O=[N+]([O-])c1ccc(O)cc1
5. O=C(O)Cc1cc(I)c(Oc2cc(I)c(O)c(I)c2)c(I)c1
6. FC(F)(I)C(F)(F)C(F)(F)C(F)(F)C(F)(F)C(F)(F)I

a:
inactive
inactive
inactive
inactive
inactive
23.3 µM (active) [middle of 5 runs]

q: Need AC50 of CCCCCCCCCCCCc1ccccc1S(=O)(=O)O , thanks.
a: inactive

====

Read-out: solute carrier (SLCO1B1), SLCO1B1 (gene 10599)
Assay: LTEA_HepaRG_SLCO1B1: Life Technologies and Expression Analysis (LTEA) Assay for solute carrier (SLCO1B1) using HepaRG (AID 2283530)
Conditions: mRNA level, 48 h; actives raise or lower the signal
Calls of active or inactive are those of the source. The calls were made as follows: active = hit-call score of the fitted dose curve at least 0.9, where 1 is the maximum; inactive = score below 0.9.
Could you please pick one outcome from this set? YES for active, NO for inactive

CC(C)(C)CC(C)(C)c1ccc(O)c(-n2nc3ccccc3n2)c1 :: NO
c1ccc2cc3c(ccc4ccccc43)cc2c1 :: YES
COC(=O)CCCCC(=O)OC :: NO
CCCCCCCCCCCCCCCS(=O)(=O)Oc1ccccc1 :: NO
CCCCCCCCOC(=O)CCCCCCCCC(=O)OCCCCCCCC :: NO
CC(=O)NC1(c2cccc(F)c2)CCN(CC[C@@]2(c3ccc(Cl)c(Cl)c3)CN(c3ccccc3)C(=O)CO2)CC1 :: YES
Nc1cccc2c(N)cccc12 :: YES
CN1CCN(c2ccccc2/C=C2\SCCN(c3ccc(Cl)c(Cl)c3)C2=O)CC1 :: NO
C=C(C)C(=O)OCCC(F)(F)C(F)(F)C(F)(F)C(F)(F)C(F)(F)C(F)(F)F :: NO

Now take the following molecule into account.
q: Per the records of this test, what outcome belongs to C[C@@H]1C[C@H]2[C@@H]3CCC4=CC(=O)C=C[C@]4(C)[C@@]3(F)[C@@H](O)C[C@]2(C)[C@@]1(O)C(=O)COP(=O)(O)O ?
a: NO

====

Read-out: Interleukin-8 (IL8), CXCL8 (gene 3576)
Assay: BSK_CASM3C_IL8: BioMAP Diversity Plus: CASM3C Assay for Interleukin-8 (IL8) Biomarker Activity (AID 2283042);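 note: IL-8 protein level quantified by ELISA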
Conditions: primary human coronary artery smooth muscle cells; actives raise or lower the signal
Activity calls are given as the source filed them. Rule for the calls: active = hit-call score of the fitted dose curve at least 0.9, where 1 is the maximum; inactive = score below 0.9.
Outcome field: choose from active, inactive

CCC(=C(c1ccc(O)cc1)c1ccc(OCCN(C)C)cc1)c1ccccc1 :: active
Nc1cccc2c(N)cccc12 :: inactive
O=C(O)Cc1cc(I)c(Oc2cc(I)c(O)c(I)c2)c(I)c1 :: inactive
CCCCCCCCOC(=O)CCCCCCCCC(=O)OCCCCCCCC :: inactive
CC(=O)CC(C)(C)O :: inactive

Proceed to the following item.
q: Give the logged outcome of this assay for the following molecule: NC(=O)N1C(=O)C(C(=O)c2cc(Cl)cs2)c2cc(F)c(Cl)cc21 (stereo unspecified)
a: inactive

====

Assay: ATG_MRE_CIS: Attagene CIS-FACTORIAL HepG2 Assay for human Metal Responsive Element (MRE) (AID 2282954)
Details: HepG2 MRE cis-reporter transcription, Attagene multiplex; actives raise or lower the signal
Calls of active or inactive are those of the source. Rule for the calls: active = hit-call score of the fitted dose curve at least 0.9, where 1 is the maximum; inactive = score below 0.9.
Parameter call: string, one of active, inactive

Solved cases (3 shown):
CCCCCCCCCCCCc1ccccc1S(=O)(=O)O :: inactive
NCC(F)(F)C(F)(F)C(F)(F)C(F)(F)C(F)(F)C(F)(F)C(F)(F)F :: inactive
CC(C)(C)CC(C)(C)c1ccc(O)c(-n2nc3ccccc3n2)c1 :: inactive

q: What classification did CC(C)(C)c1cccc(C(C)(C)C)c1O end up with in this test?
a: active

q: Please share the test call associated with Cc1cc(C)c(O)c(C)c1 .
a: inactive

q: Outcome? CCCCCCCCCCCCCCCS(=O)(=O)Oc1ccccc1
a: inactive

q: What classification did O=c1c(-c2ccc(O)cc2)coc2cc(O)ccc12 end up with in this test?
a: inactive

q: State the result this test recorded for c1ccc2c(c1)ccc1ccccc12 .
a: inactive

====

Read-out: E-selectin (Homo sapiens) (UniProt P16581)
Sequence (P16581 whole entry, looked up): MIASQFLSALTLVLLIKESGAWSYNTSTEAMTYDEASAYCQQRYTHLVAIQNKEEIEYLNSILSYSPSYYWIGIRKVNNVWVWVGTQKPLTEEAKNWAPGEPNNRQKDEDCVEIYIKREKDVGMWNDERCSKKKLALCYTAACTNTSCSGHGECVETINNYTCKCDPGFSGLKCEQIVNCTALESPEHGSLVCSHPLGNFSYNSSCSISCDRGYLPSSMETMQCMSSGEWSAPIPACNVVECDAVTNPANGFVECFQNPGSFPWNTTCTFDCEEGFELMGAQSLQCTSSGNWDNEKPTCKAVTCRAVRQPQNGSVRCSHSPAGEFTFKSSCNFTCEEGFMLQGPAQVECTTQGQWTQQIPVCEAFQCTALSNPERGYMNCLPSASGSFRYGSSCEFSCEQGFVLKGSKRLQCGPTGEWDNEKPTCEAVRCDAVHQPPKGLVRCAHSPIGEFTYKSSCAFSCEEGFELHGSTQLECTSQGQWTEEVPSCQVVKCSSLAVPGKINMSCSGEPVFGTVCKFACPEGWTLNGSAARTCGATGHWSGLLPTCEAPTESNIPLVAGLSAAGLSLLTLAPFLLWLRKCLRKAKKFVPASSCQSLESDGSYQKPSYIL
Assay: BSK_SAg_Eselectin: BioMAP Diversity Plus: SAg Assay for Eselectin Biomarker Activity (AID 2283091)
Conditions: primary human HUVEC with PBMC; actives raise or lower the signal
Calls of active or inactive are those of the source. The calls were made as follows: active = hit-call score of the fitted dose curve at least 0.9, where 1 is the maximum; inactive = score below 0.9.
Write down one outcome, taken from True (active), False (inactive)

q: Would you mind telling me which call this test gave CN1CCC[C@H]1c1cccnc1 ?
a: False

q: Query: recorded result category for C=C(C)C(=O)OCCC(F)(F)C(F)(F)C(F)(F)C(F)(F)C(F)(F)C(F)(F)F in this test
a: False

q: I'd appreciate the recorded outcome for Oc1cccc(O)c1 from this test.
a: False

q: For Cc1cc(CCN2CCN(c3nsc4ccccc34)CC2)cc2c1NC(=O)CC2(C)C , what call appears in the results of this test?
a: True

q: Could you check what this test reported for OC1CCCCC1 ?
a: False

q: // return assay outcome for COc1ccc([N+](=O)[O-])cc1N
a: False

q: Lab log entry: CC(C)(C)c1ccc(O)c(C(C)(C)C)c1 — outcome as called in the assay?
a: True

q: Entry O=C(O)c1ccccc1C(c1ccc(O)cc1)c1ccc(O)cc1 : call = ?
a: False
